Entries annotated with measured composite z-score
# SUBJECT_OF_TEST: Torsin-1A (Homo sapiens)
# TEST: torsin A binders from cell lysate, primary screen, small-molecule microarray, wild-type, 635/667 nm (AID 1149)
# EXPERIMENTAL_SETUP: COS7 hTOR1A-WT lysate, 635 nm fluorescence, higher = more signal

COMPOUND	composite z-score
COC(=O)[C@@]1(Cc2ccccc2)[C@H]2c3cc(C(=O)N(C)C)n(Cc4c(-c5ccccc5)noc4C)c3C[C@H]2CN1C(=O)c1ccccc1	0.301
Cc1ccc([C@H]2[C@H](C(=O)O)[C@H](Sc3ccccc3)[C@@H](C(C)C)N2S(=O)(=O)c2ccc(C)cc2)cc1	0.495
CCOC(=O)C1=C[C@@H](CC)N(S(=O)(=O)c2ccc(C)cc2)[C@H]1c1ccccc1	0.391
C[C@H]1NC(=O)[C@H](Cc2ccccc2)NC(=O)[C@@]23C(=O)N[C@@H](Cc4ccccc4)C2[C@H](C)[C@@]2(C)O[C@H]2C3/C=C/C/C=C\CNC1=O (stereo partly specified)	-0.477
O=C1C2C=CC(C(O)c3cccs3)N(Nc3ccccc3F)C2C(=O)N1c1ccccc1 (stereo unspecified)	0.0473
C=CCC(OC(C)=O)[C@@H]1[C@@H](N(Cc2cccc3ccccc23)C(=O)c2ccc(C)cc2)c2cc(OCCCO)ccc2N1C(=O)Cc1ccc(OC)cc1 (stereo partly specified)	0.291
Cc1ccc(S[C@]2(C(=O)NCc3ccccc3)CC(=O)N(Cc3ccccc3Cl)[C@@H]2c2ccc(CO)cc2I)cc1	-2.03
O=C1OCC=C[C@H]2OC34C=CCN(c5ccc(Cl)cc5)C(=O)[C@H]3N(CCCCCCO)C(=O)[C@@H]4[C@@H]12 (stereo partly specified)	-1.39
O=C/C=C/c1ccc(Cl)cc1	-1.01
C[C@]1(C(=O)NCc2ccccc2)c2ccccc2C(=O)N(Cc2cc(F)cc(C(F)(F)F)c2)[C@H]1c1ccc(CO)cc1	-0.956
COC(=O)[C@@]1(Cc2ccccc2N=[N+]=[N-])COC(c2ccc(OCCCO)cc2)=N1	0.678
COCCOC(=O)N1C(=O)[C@@]2(c3cc(C#CCC(C(=O)OC)C(=O)OC)ccc31)[C@H](C(=O)N1CCCCCCC1)[C@H]1C(=O)O[C@H](c3ccccc3)[C@H](c3ccccc3)N1[C@@H]2c1ccc(OCCO)cc1	2.01
CN1CCC(CCCO)=CC1c1ccc(CN2CCCC2)cc1 (stereo unspecified)	3.12
CCCCC(CC)C(O)C1C=CC2C(=O)N(c3ccccc3)C(=O)C2N1Nc1ccccc1 (stereo unspecified)	-0.311
COCC1=C2[C@@H](CCc3ccccc3)OB(O)C[C@@H]2[C@@H]2C(=O)N(Cc3ccccc3)C(=O)[C@@H]2C1	-0.427
CC(C)CNC(=O)[C@@H]1c2ccccc2C(=O)N(Cc2cc(C(F)(F)F)cc(C(F)(F)F)c2)[C@H]1c1ccc(CO)cc1	-0.395

* * *

# TEST: small-molecule binders of probe aInhba, primary screen, biochemical, small-molecule microarray, 635/667 nm fluorescence (AID 1148);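 also: score merges 667nm spot fluorescence with signal-to-noise for antibody binding to printed compounds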
# EXPERIMENTAL_SETUP: higher = more signal
# if value of composite z-score reaches 0.09, tag YES; if it stays below, tag NO

MOLECULE	CLASS
COC(=O)[C@@]1(Cc2ccc(OC)cc2)[C@H]2c3cc(C(=O)N4CCCC4)n(Cc4cc(F)cc5c4OCOC5)c3C[C@H]2CN1C(=O)c1ccccc1	YES
C=C(CCCC)C(=O)CC[C@H](OC(=O)c1cccnc1)c1cccc(OCCO)c1	NO
COCCOC(=O)N1C(=O)[C@@]2(c3cc(C#CCC(C(=O)OC)C(=O)OC)ccc31)[C@H](C(=O)N1CCCCCCC1)[C@H]1C(=O)O[C@H](c3ccccc3)[C@H](c3ccccc3)N1[C@@H]2c1ccc(OCCO)cc1	YES
CS(=O)(=O)CCOC(=O)C1=CC(c2ccc(CO)cc2)=CC(C2CC2)N(Cc2cc3c(cc2Br)OCO3)C=C1C(=O)OCCS(C)(=O)=O (configuration not stated)	NO
CC(C)N1C(=O)[C@@]2(c3ccc([N+](=O)[O-])cc3)CC(=O)N(CC34CC5CC(CC(C5)C3)C4)[C@@H]2c2ccc(CO)cc21	YES
CCCCCN1CC=CC23O[C@@H]4/C=C\CCC(C)OC(=O)C4[C@H]2C(=O)N(CCCCCO)[C@@H]3C1=O (some centres not stated)	NO
